Test system: Human papillomavirus type 1a protein E7 (residues 44-93)
Assay: HPV1a E7 fragment binders on microarrays, primary screen, biochemical, small-molecule microarray, residues 44-93, 635 nm fluorescence (AID 1108);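 further: E7 fragment applied at 1 µg/mL in TBST for 1 h at 4 C; score combines spot fluorescence with its signal to noise ratio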
Conditions: small-molecule microarray binding, fluorescence 635 nm; higher = more signal
Entries and their measured composite z-score follow.
metric_name: composite z-score

>>> measurement("C=CCOC(=O)[C@H]1[C@@H]2C(=O)O[C@@H](c3ccccc3)[C@@H](c3ccccc3)N2[C@@H](c2ccc(OCCOC(=O)[C@H]3C[C@H]4C(=O)N[C@@H](CCCCN(C)C)C(=O)N4[C@H]3c3ccc(O)cc3)cc2)[C@]12C(=O)Nc1ccc(I)cc12")
1.4
>>> measurement("COc1ccc([Si](C)(C)[C@@H]2[C@@H](CCO)O[C@]3(C(=O)N(Cc4ccc(N(C=O)c5ccccc5)cc4)c4ccccc43)[C@H]2C)cc1")
0.121
>>> measurement("CC1(C)[C@@H]2CC(C(O)C3C=CC4C(=O)N(Cc5ccccc5)C(=O)C4N3n3cnnc3)=C[C@H]1C2 (stereo not given in full)")
1.4
>>> measurement("[N-]=[N+]=NCc1ccccc1C[C@]1(C(N)=O)COC(c2ccc(OCCCO)cc2)=N1")
0.202
>>> measurement("COc1cccc(-c2cccc(=O)o2)c1")
-1.17
>>> measurement("COc1ccc(C(O)C2C=CC3C(=O)N(Cc4ccccc4)C(=O)C3N2n2cnnc2)cc1OCc1ccccc1 (stereo not given)")
0.958
>>> measurement("COC(=O)[C@H](Cc1ccccc1)N[C@@H](/C=C/C1CC1)[C@H](O)Cc1ccccc1")
-0.431
>>> measurement("COc1ccccc1CN1C(=O)c2ccccc2[C@@H](C(=O)NC2CC2)[C@@H]1c1ccc(CO)cc1")
0.0772
>>> measurement("COC(=O)[C@@]1(Cc2ccc(F)cc2)[C@H]2c3cc(C(=O)N4CCCC4)n(Cc4ccc(S(C)(=O)=O)cc4)c3C[C@H]2CN1C(=O)c1ccccc1")
1.38
>>> measurement("CC(C)N1C(=O)[C@@]2(Cc3ccccc31)c1ccccc1C(=O)N(Cc1ccccc1Cl)[C@H]2c1ccc(CO)cc1")
-0.469
>>> measurement("CCCCCN1CC=CC23O[C@@H]4C=CCCOC(=O)C4[C@H]2C(=O)N(CCCCCO)[C@@H]3C1=O (stereo not given in full)")
-0.168
>>> measurement("CC(C)NC(=O)[C@@]1(C)c2ccccc2C(=O)N(Cc2cc(C(F)(F)F)cc(C(F)(F)F)c2)[C@H]1c1ccc(CO)cc1")
1.02
>>> measurement("CC(=O)NCCCC[C@@H]1NC(=O)[C@H]2C[C@@H](C(=O)NCCCCCCNC(=O)CS)[C@@H](c3ccc(O)cc3)N2C1=O")
1.06
>>> measurement("CC(C)(C)OC(=O)CC[C@]1(C(=O)N2CCOCC2)N=C(c2ccc(OCCCO)cc2)O[C@H]1c1ccccc1N=[N+]=[N-]")
1.05
>>> measurement("NC(=O)NCC#Cc1ccc2c(c1)[C@]1(C(=O)N2)[C@H](c2ccccc2OCCO)N2[C@H](c3ccccc3)[C@H](c3ccccc3)OC(=O)[C@H]2[C@@H]1C(=O)Nc1nc2ccccc2s1")
1.36

---

Entries and their measured composite z-score follow.
Biological target: Follistatin-related protein 3 (Homo sapiens)
Test: FSTL3 binders on small-molecule microarrays, primary screen, biochemical, small-molecule microarray, 635 nm fluorescence (AID 1105);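 further: score merges emission near 667 nm and signal to noise per printed spot across three slides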
Details: FSTL3 binding, higher = more signal
metric_name: composite z-score

>>> measurement("COc1ccc(CCNC(=O)[C@@]2(C)c3ccccc3C(=O)N(C(C)C)[C@H]2c2ccc(CO)cc2)cc1")
0.335
>>> measurement("O=C1NC(=O)C2C1C=CC(C(O)c1cc(C(F)(F)F)cc(C(F)(F)F)c1)N2Nc1ccccn1 (stereo not given)")
0.431
>>> measurement("COC(=O)[C@@]1(Cc2ccccc2)[C@H]2c3cc(C(=O)N4CCCC4)n(Cc4ccc(S(C)(=O)=O)cc4)c3C[C@H]2CN1C(=O)c1ccccc1")
0.94
>>> measurement("C[N+](C)(C)CCCCNC(=O)[C@@H]1C[C@@H]2C(=O)N[C@@H](Cc3ccccc3)C(=O)N2[C@@H]1c1cccc(OCCO)c1")
0.683
>>> measurement("Oc1ccc2cc[n+](Cc3sc4ccccc4c3Cl)cc2c1")
0.618
>>> measurement("CC(C)N1C(=O)c2ccccc2[C@](C)(C(=O)NCCN2CCOCC2)[C@@H]1c1ccc(CO)cc1")
-0.115
>>> measurement("CN1C=C(C(=O)OCCS(C)(=O)=O)C(C(=O)OCCS(C)(=O)=O)=CC(c2ccc(CO)cc2)=CC1C1CC1 (stereo not given)")
-0.0857
>>> measurement("[N-]=[N+]=Nc1ccccc1[C@@H]1OC(c2ccc(OCCCO)cc2)=N[C@]1(Cc1ccccc1)C(=O)N1CCOCC1")
1.16
>>> measurement("CN1C(=O)C2C=CC(C(O)C#Cc3ccccc3)N(N3CCCCC3)C2C1=O (stereo not given)")
0.731
>>> measurement("C=CCOC(=O)[C@H]1[C@@H]2C(=O)O[C@@H](c3ccccc3)[C@@H](c3ccccc3)N2[C@@H](c2ccc(OCCOC(=O)[C@H]3C[C@H]4C(=O)N[C@@H](CCCCN(C)C)C(=O)N4[C@H]3c3ccc(O)cc3)cc2)[C@]12C(=O)Nc1ccc(I)cc12")
1.41
>>> measurement("C=CC[C@@]1(C(=O)NCCN2CCOCC2)N=C(c2ccc(OCCCO)cc2)O[C@@H]1c1ccccc1N=[N+]=[N-]")
0.255
>>> measurement("COCCOC(=O)N1C(=O)[C@@]2(c3cc(C#Cc4ccc(OC)cc4)ccc31)[C@H](c1ccc(OCCO)cc1)N1[C@H](c3ccccc3)[C@H](c3ccccc3)OC(=O)[C@H]1[C@@H]2C(=O)N1CCN(c2ncccn2)CC1")
1.27
>>> measurement("CC(C)N1C(=O)[C@@]2(Cc3ccccc31)c1ccccc1C(=O)N(Cc1ccccc1Cl)[C@H]2c1ccc(CO)cc1")
-0.785
>>> measurement("COc1ccc(/C=C/C=O)cc1")
0.679
>>> measurement("COc1ccc([C@H]2OC[C@@H]3C[C@@H](Cc4ccccc4)C(=O)N32)cc1")
0.821
